# EC50 per record follows
Tested on: RVFV MP-12
Test: microbe, parasite or virus in culture
Format: cell-based, Rift Valley fever virus
Conditions: read-out: Estimated EC50
Give the quantity in µM, number only.

In [3]: df
Out[3]:
                                smiles_repr  quantity_name  numeric_value
0  Cc1cc(O)c(=O)c(O)cc1C(=O)Nc1cccc(OCc2ccccc2)c1           EC50             13
1   O=c1c(O)c(SCc2ccccc2)ccc(SCc2ccccc2)c1O           EC50              9

Qu. # return recorded EC50 for input Cc1cc(O)c(=O)c(O)cc1C(=O)NCc1ccc(-c2ccccc2)cc1
Ans. 10

Qu. # return recorded EC50 for input CC(=Nc1ccccc1Cl)c1c(C)cc(=O)n(O)c1O
Ans. 11

These measurements were taken from paper PMC9481026.
